meta.source: PubChem BioAssay (NCI)

# System: PC-3 prostate
# assay text: NCI-60 one-dose screen, 48 h (100 = growth as untreated, 0 = no growth, -100 = all killed)
# assay context: 10 µM unless noted
Compounds without any hit were thinned out: in the full panel of roughly 83,000, 20% have a hit.
Assignment: determine reported growth for the given compounds.
Answers are plain numbers, in %.

Previously resolved entries follow.
compound	test target	unit tag	observed result
COc1ccc(N)cc1C(=O)Nc1cccc(-c2cc(=O)c3c(OC)c(OC)c(OC)cc3o2)c1	PC-3 prostate	%	74.1
C/C(=C(/C)C1CC1CCN(C(=O)c1ccc([N+](=O)[O-])cc1)S(=O)(=O)c1ccc(C)cc1)C1CCCCC1 (centres undefined)	PC-3 prostate	%	85.4
Cc1cccc(NC(c2cc3cccc4ccc5cccc2c5c43)c2nnnn2C(C)(C)C)c1C (centres undefined)	PC-3 prostate	%	77.5

Please give growth for each item listed below.
1. COc1ccc(-c2nc3cc(Cl)c(Cl)cc3n2CC(=O)N=Nc2c(O)[nH]c3ccccc23)cc1
2. O=c1[nH]c(CCl)nc2c1cnn2-c1ccccc1

(A)
[76.1, 105]

Please give growth for each item listed below.
1. Cc1cc(C(=O)Nc2ccc(SC#N)cc2)c(C)o1
2. COc1ccc([C@H]2[C@H](O)C(=O)N2c2cc(OC)c(OC)c(OC)c2)cc1
3. CCCCCCNC(=O)Oc1ccc(/C(=C(/C)c2ccc(OC)cc2)c2ccc(OCCN3CCCC3)cc2)cc1
4. O=C1c2c(O)cc(O)cc2O[C@@H](c2ccc(O)cc2)[C@@H]1c1c(O)cc(O)c2c(=O)cc(-c3ccc(O)c(O)c3)oc12

(A)
[73.9, 13.9, 67.7, 96.1]

---

# Tested on: NCI-H460 lung
# assay text: NCI-60 one-dose screen, 48 h (100 = growth as untreated, 0 = no growth, -100 = all killed)
# assay context: 10 µM unless noted
This is part of a sample that, as a whole, favours compounds with a hit. Of some 83,000 tested, about 20% had one in any assay.
quantity kind: growth (%)
Give bare numbers, in %.

Previously resolved entries follow.
molecule	test target	unit tag	growth
CS(=O)c1nccc(-c2c(-c3ccc(F)c(OCc4ccc(F)cc4)c3)nc3sccn23)n1 (centres undefined)	NCI-H460 lung	%	35.6
COc1ccc(-c2nc3cc(Cl)c(Cl)cc3n2CC(=O)N=Nc2c(O)[nH]c3ccc(Br)cc23)cc1	NCI-H460 lung	%	-42.5
COc1ccc(-c2cc(-c3ccc(Cl)cc3)nc3nc(N)nn23)cc1	NCI-H460 lung	%	107

Please give growth for each item listed below.
1. C#C[C@]1(O)CC[C@H]2[C@@H]3CC=C4c5sc(Nc6cccc(Cl)n6)nc5CC[C@]4(C)[C@H]3CC[C@@]21C
2. COc1cc([C@H]2OC[C@H]3[C@@H]2CO[C@@H]3c2ccc(O)c(OC)c2)ccc1O
3. O=C1c2c(c3c4cc(Br)ccc4[nH]c3c3ccc4ccccc4c23)C(=O)N1CCN1CCCCC1

(A)
-2.3
90.3
-67.7

Please give growth for each item listed below.
1. C=C(C)[C@@H]1CC[C@]2(COS(C)(=O)=O)CC[C@]3(C)[C@H](CC[C@@H]4[C@@]5(C)CCCNC(C)(C)[C@@H]5CC[C@]43C)[C@@H]12
2. COc1ccc(S(=O)(=O)NCCCNc2nccc(-n3cnc4ccccc43)n2)cc1
3. CC[C@]12C=CCN3CC[C@]4(C(=C(C(=O)OC)C1)Nc1cc5c(cc14)[C@@H]1[C@H](O5)[C@@H](O)[C@@]4(CC)CC(C(=O)OC)=C5Nc6cc(OC)ccc6[C@@]56CCN1[C@@H]46)[C@@H]32
4. CCCCCc1ccc(S(=O)(=O)N(C(C)=O)c2cccc(-c3csc(N(CCN4CCN(C)CC4)C(C)=O)n3)c2)cc1

(A)
1. 13.5
2. 97.3
3. 5.78
4. -21.4

Please give growth for each item listed below.
1. C#CCOc1ccc(/C=N/Nc2nc(-c3cc(Cl)ccc3Cl)cs2)cc1
2. Cc1ccccc1/C=C/c1nn2c(-c3ccoc3C)nnc2s1
3. Cc1ccc(S(=O)(=O)N/N=C/c2cn(-c3ccc(F)cc3)nc2-c2ccc(S(C)(=O)=O)cc2)cc1

(A)
96.8
102
108

Please give growth for each item listed below.
1. C=CCn1c(SCC(=O)Nc2cccc(C(=O)/C=C/c3ccccc3Cl)c2)nc2ccccc2c1=O
2. CCN1C(=O)N(CC)C2SC(N/N=C/c3cccs3)=NC21 (centres undefined)
3. O=c1oc2ccc(-c3ccc(F)cc3F)cc2c(=O)n1-c1ccc(F)c(F)c1

(A)
1. 93
2. 3.74
3. 2.7

---

# Tested on: SK-OV-3 ovarian
# assay text: NCI-60 one-dose screen, 48 h (100 = growth as untreated, 0 = no growth, -100 = all killed)
# assay context: 10 µM unless noted
About 83,000 compounds went through this panel and 20% of them were active in at least one assay; those are over-represented in the sample as a whole.
Given measured growth, output Fulfilled if it is greater than or equal to 30% and Not fulfilled if not.

compound	class name
COc1ccc([C@H]2[C@H](O)C(=O)N2c2cc(OC)c(OC)c(OC)c2)cc1O	Not fulfilled
O=C(Cn1cc(CN2C(=O)c3ccc([N+](=O)[O-])cc3C2=O)nn1)Nc1ccc(F)cc1Cl	Fulfilled
Oc1ccc(CSc2nnc(-c3ccncc3)n2-c2ccccc2)c2cccnc12	Not fulfilled

(Q) Confirm if growth reported for the compound "Cc1nn(-c2ccccc2)cc1/C=N/Nc1nc(Nc2ccccc2)nc(Nc2ccc(S(N)(=O)=O)cc2)n1" is 30% or above.
(A) Fulfilled

(Q) Confirm if growth reported for the compound "O=C1c2c(c3c4cccnc4[nH]c3c3ccc4ccccc4c23)C(=O)N1CCN1CCCCC1" is 30% or above.
(A) Fulfilled

(Q) Confirm if growth reported for the compound CCCC(=O)NC(c1cccnc1)c1cc(C(C)=O)c2cccnc2c1O (centres undefined) is 30% or above.
(A) Fulfilled

(Q) Confirm if growth reported for the compound "CCN1CCN(Cc2ccc(C(=O)Nc3nc4ccc(Oc5ccnc(C(=O)NC)c5)cc4s3)cc2C(F)(F)F)CC1" is 30% or above.
(A) Fulfilled

(Q) Confirm if growth reported for the compound "Cc1occc1-c1nc2s/c(=C\c3cn(-c4ccccc4)nc3-c3ccccc3)c(=O)n2n1" is 30% or above.
(A) Fulfilled

---

# Tested on: SN12C renal
# assay text: NCI-60 one-dose screen, 48 h (100 = growth as untreated, 0 = no growth, -100 = all killed)
# assay context: 10 µM unless noted
# Description: Growth inhibition of the SN12C human tumor cell line is measured as a screen for anti-cancer activity. Cells are grown in 96 well plates and exposed to the test compound for 48 hours. Compounds are tested at a single concentration, which is 10^-5 M for most compounds. The reported endpoint is percent growth (GI% or GIPRCNT), where numbers from 0 - 100% represent growth inhibition, and numbers from -100% - 0 represent cell death. For example, a value of 40 represents 60% growth inhibition. […]
This is part of a sample that, as a whole, favours compounds with a hit. Of some 83,000 tested, about 20% had one in any assay.
quantity kind: growth (%)
One number for each entry, in %.

Previously resolved entries follow.
compound	observed result
N#C/C(=C\c1ccc(-c2ccc(F)cc2)o1)C(=O)Nc1ncc(Cc2ccc(Cl)cc2Cl)s1	-37.5
Oc1ccc(CSc2nnc(-c3ccc(Br)cc3)n2-c2ccccc2)c2cccnc12	35
COc1ccc2c(c1)c(-c1nn3c(=O)cc(-c4ccccc4)nc3s1)cn2C	45.2
CCOC(=O)/C=c1\sc2n(c1=O)C1C(NN=2)N(CC)C(=O)N1CC (stereo unspecified)	71.9
CCOC(=O)c1c(NCC(=O)Nc2cccc(Cl)c2)sc2c1CCCC2	73

Please give growth for each item listed below.
1. O=C1[C@@H]2Cc3c([nH]c4ccccc34)[C@H](c3c(Cl)cccc3Cl)N2C(=O)CN1C1CCN(Cc2c(F)cccc2F)CC1
2. O=C1[C@@H]2Cc3c([nH]c4ccccc34)[C@H](c3c(Cl)cccc3Cl)N2C(=O)CN1C1CCN(Cc2ccccc2)CC1
3. ClC(Cl)c1nc(-c2cccs2)n2nc(-c3ccccc3)cc2n1
4. C#C[C@]1(O)CC[C@H]2[C@@H]3CC=C4c5sc(Nc6nc(C)cc(OC)n6)nc5CC[C@]4(C)[C@H]3CC[C@@]21C
5. O=C(COc1ccc(C2SCC(=O)N2c2ccccc2)cc1)c1ccccc1 (stereo unspecified)

(A)
50.6
15.5
50.6
73
92.3

Please give growth for each item listed below.
1. Cc1ccc(C2CC(c3ccc(Nc4nc(NCCO)nc(Nc5ccc(Cl)cc5)n4)cc3)=Nc3c(N)nc(N)nc3N2)cc1 (stereo unspecified)
2. COc1ccc(-c2cc(-c3cccc4ccccc34)n3c(n2)nc2ccccc23)cc1OC
3. Cc1cc(F)cc(NS(=O)(=O)c2ccc(-c3cnc(C4CC4)o3)cc2)c1
4. CCNCCCn1c2c(c3cc(OC)c(OC)cc3c1=O)C(=O)c1cc(OC)cnc1-2
5. O=C1c2c(c3c4cc(Br)ccc4[nH]c3c3ccc4ccccc4c23)C(=O)N1CCN1CCNCC1
6. Nc1nc(-c2cccc([N+](=O)[O-])c2)c(N=Nc2ccccc2Cl)s1
7. CCOC(=O)c1c(NCC(=O)Nc2cccc([N+](=O)[O-])c2)sc2c1CCCC2

(A)
1: -65.8; 2: 10.9; 3: 44.8; 4: 20.8; 5: 84.8; 6: 73.7; 7: -28.9

Please give growth for each item listed below.
1. Cc1ccc(-c2cc3nc(C(Cl)Cl)nc(-c4ccccc4)n3n2)cc1
2. Oc1ccc(-c2nnc(SCc3ccc(O)c4ncccc34)o2)cc1
3. O=C(NCCNc1cc(-c2cn(-c3ccccc3)nc2-c2cccc(O)c2)ccn1)Nc1ccc(Cl)c(C(F)(F)F)c1

(A)
[107, 6.09, 65.6]

Please give growth for each item listed below.
1. CN(C)c1ncc(/C=C2\SC(=S)N(Cc3ccccc3Cl)C2=O)s1
2. O=c1[nH]c(CNc2ccc(NCc3c(-c4ccccc4)no[n+]3[O-])cc2)nc2c1cnn2-c1ccccc1
3. CCN1C(=O)N(CC)C2SC(N/N=C/c3ccccc3F)=NC21 (stereo unspecified)
4. COc1cc2cc(Oc3ccc(NC(=O)Nc4cccc(C(F)(F)F)c4)cc3)c(C)nc2cc1OCCN(C)C
5. O=C(Cn1cc(CN2C(=O)c3ccc([N+](=O)[O-])cc3C2=O)nn1)Nc1ccc(F)cc1Cl

(A)
68.7
78.9
34.6
92.3
101

Please give growth for each item listed below.
1. N#C/C(=C\c1ccc2ccccc2c1)C(=O)Nc1sc2c(c1C#N)CCC2
2. O=C(CCCCCCN1CC(=O)N2[C@@H](c3cccc(Br)c3)c3[nH]c4ccccc4c3C[C@H]2C1=O)NO

(A)
[95.5, 44.7]

Please give growth for each item listed below.
1. CN1CCN(Cc2ccc(NC(=O)c3cncc(C#Cc4cnc5ccc(NC6CCOCC6)nn45)c3)cc2C(F)(F)F)CC1
2. COc1ccc(-c2nnc(SCc3ccc(O)c4ncccc34)n2-c2ccccc2)cc1
3. CN(c1ccc(Br)cc1)S(=O)(=O)c1ccc(-c2cnc(C3CC3)o2)cc1
4. CC[C@]12C=CCN3CC[C@]4(C(=C(C(=O)OC)C1)Nc1cc5c(cc14)[C@@H]1[C@H](O5)[C@@H](O)[C@@]4(CC)CC(C(=O)OC)=C5Nc6cc(OC)ccc6[C@@]56CCN1[C@@H]46)[C@@H]32
5. N#Cc1c(NC(=O)c2ccccc2C(F)(F)F)sc2c1CCC(=O)C2
6. CS(=O)c1nccc(-c2c(-c3ccc(F)c(OCc4ccc(F)cc4)c3)nc3sccn23)n1 (stereo unspecified)
7. C/C(=C(/c1ccc(O)cc1)c1ccc(OCCN2CCCC2)cc1)c1ccc(Cl)cc1
8. O=C1c2c(c3c4cccnc4[nH]c3c3ccc4ccccc4c23)C(=O)N1CCN1CCCCC1

(A)
[1.01, 24.3, 30.2, 16.4, 14.5, 93.6, 66, 45.2]

(Q) Query: growth; subject: "CCOC(=O)c1c(Nc2ccccc2)nn2c(-c3ccc(OC)c(OC)c3)ccnc12"
(A) 67.9
